- Test system: KCL-22
- experimental-protocol: cell viability (% survival relative to DMSO control, bortezomib = 0%); higher = less cytotoxic
- stated-conditions: 1000 nM; 72 h
Quick reference: cell viability of the listed items.
Your answer should be a plain number; it is taken to be in %.

Illustrative cases are given below, each with its answer.
> print(dat)
                                   compound  units  assay.value
1        O=C(C(=O)c1ccc(Br)cc1)c1ccc(Br)cc1      %          101
2  NS(=O)(=O)c1ccc(NC(=O)Cc2ccccc2)cc1 [4-(2-Phenylacetamido)Benzenesulfonamide]      %          108
3       COc1cc(/C=C/c2ccc(OC)cc2OC)cc(OC)c1      %          106

Prompt: Would you mind telling me what cell viability value was observed for `CCCCCCCCCCCCC/C=C/[C@@H](O)[C@H](CO)N(C)C` ?
Completion: 91.3

Prompt: Would you mind telling me what cell viability value was observed for CC1Cc2ccccc2N1NC(=O)c1ccc(Cl)c(S(N)(=O)=O)c1 (stereo not drawn) [Indapamide] ?
Completion: 102

Prompt: Would you mind telling me what cell viability value was observed for `O=C(CCl)N(CCCNC(=O)C(F)(F)F)c1ccc([N+](=O)[O-])cc1` ?
Completion: 82.5

Prompt: Would you mind telling me what cell viability value was observed for `O=C(Oc1ccc([N+](=O)[O-])cc1)N1CCC(C(O)(c2ccc3c(c2)OCO3)c2ccc3c(c2)OCO3)CC1` ?
Completion: 105

Prompt: Would you mind telling me what cell viability value was observed for `O=C1N[C@@H]2[C@@H](O)[C@@H](O)[C@H](O)[C@@H](CO)N2C1=O` ?
Completion: 89

---

Quick reference: cell viability of the listed items.
- System: HL-60
- experimental-protocol: cell viability (% survival relative to DMSO control); higher = less cytotoxic
- stated-conditions: 1 µM; 72 h; co-treatment: AZD3965 100 nM
Your answer should be a plain number; it is taken to be in %.

Illustrative cases are given below, each with its answer.
compound	units	cell viability
COc1ccc2c(c1)c(CC(=O)O)c(C)n2C(=O)c1ccc(Cl)cc1 [Indomethacine]	%	103
C[C@H]1O[C@H](O[C@H]2[C@H](O)[C@@H](O)[C@@H](O[C@H]3[C@H](O)[C@@H](O)C(O)O[C@@H]3CO)O[C@@H]2CO)[C@H](O)[C@@H](O)[C@@H]1N[C@H]1C=C(CO)[C@@H](O)[C@H](O)[C@H]1O (mixture of isomers) [Acarbose]	%	99.3
CCCCCCCCCCCCC/C=C/[C@@H](O)[C@H](CO)N(C)C [N,N-Dimethylsphingosine]	%	100
O[C@H]1[C@H](O)[C@@H](O)CN2CC[C@H](O)[C@H]12 [Castanospermine]	%	101

Consider the record given below.
Prompt: Lab note: need cell viability with HL-60 for entry O=C(Cc1cccc(OC(F)(F)F)c1)Nc1ccc(CCCCc2nnc(NC(=O)Cc3ccccn3)s2)nn1 [CB-839] , please look it up.
Completion: 93.2

---

- Tested on: K-562
- experimental-protocol: cell viability (% survival relative to DMSO control, bortezomib = 0%); higher = less cytotoxic
- stated-conditions: 100 nM; 72 h
parameter: cell viability (%)
Your answer should be a plain number; it is taken to be in %.

> print(dat)
                                   compound  assay.value
1  CC(C)c1ccc2c(c1)c(SC(C)(C)C)c(CC(C)(C)C(=O)O)n2Cc1ccc(Cl)cc1 [MK-886]          101

Prompt: Would you mind telling me what cell viability value was observed for O=C(CCl)N(CCCNC(=O)C(F)(F)F)c1ccc([N+](=O)[O-])cc1 [ML175] ?
Completion: 99.6

Prompt: Would you mind telling me what cell viability value was observed for O=C(/C=C/c1cccnc1)NCCCCC1CCN(C(=O)c2ccccc2)CC1 [Daporinad] ?
Completion: 1.83

Prompt: Would you mind telling me what cell viability value was observed for N[C@@H](CCC(=O)N[C@@H](CS)C(=O)NCC(=O)O)C(=O)O [Glutathione] ?
Completion: 92.2

Prompt: Would you mind telling me what cell viability value was observed for `CN(C)C(=O)n1nnnc1Cc1ccc(-c2ccccc2)cc1` ?
Completion: 112

Prompt: Would you mind telling me what cell viability value was observed for C#CCN[C@@H]1CCc2ccccc21 [Rasagiline] ?
Completion: 100

Prompt: Would you mind telling me what cell viability value was observed for CC1Cc2ccccc2N1NC(=O)c1ccc(Cl)c(S(N)(=O)=O)c1 (configuration not stated) [Indapamide] ?
Completion: 120

Prompt: Would you mind telling me what cell viability value was observed for CCCCC/C=C\C/C=C\C/C=C\C/C=C\CCCC(=O)C(F)(F)F [Arachidonyl trifluoromethyl ketone] ?
Completion: 104

Prompt: Would you mind telling me what cell viability value was observed for CCC(CC#N)OC(=O)N[C@@H](C)c1cccc(NC(=O)Nc2ccc(-c3cnco3)c(OC)c2)c1 (stereo in doubt) [AVN-944] ?
Completion: 30.3
